inhibition at 10 µM by entry:
- SYSTEM: human PDE4B1 (Homo sapiens, UniProt Q07343)
- Construct: host or cells: Sf9 cells
- Sequence (Q07343 whole entry): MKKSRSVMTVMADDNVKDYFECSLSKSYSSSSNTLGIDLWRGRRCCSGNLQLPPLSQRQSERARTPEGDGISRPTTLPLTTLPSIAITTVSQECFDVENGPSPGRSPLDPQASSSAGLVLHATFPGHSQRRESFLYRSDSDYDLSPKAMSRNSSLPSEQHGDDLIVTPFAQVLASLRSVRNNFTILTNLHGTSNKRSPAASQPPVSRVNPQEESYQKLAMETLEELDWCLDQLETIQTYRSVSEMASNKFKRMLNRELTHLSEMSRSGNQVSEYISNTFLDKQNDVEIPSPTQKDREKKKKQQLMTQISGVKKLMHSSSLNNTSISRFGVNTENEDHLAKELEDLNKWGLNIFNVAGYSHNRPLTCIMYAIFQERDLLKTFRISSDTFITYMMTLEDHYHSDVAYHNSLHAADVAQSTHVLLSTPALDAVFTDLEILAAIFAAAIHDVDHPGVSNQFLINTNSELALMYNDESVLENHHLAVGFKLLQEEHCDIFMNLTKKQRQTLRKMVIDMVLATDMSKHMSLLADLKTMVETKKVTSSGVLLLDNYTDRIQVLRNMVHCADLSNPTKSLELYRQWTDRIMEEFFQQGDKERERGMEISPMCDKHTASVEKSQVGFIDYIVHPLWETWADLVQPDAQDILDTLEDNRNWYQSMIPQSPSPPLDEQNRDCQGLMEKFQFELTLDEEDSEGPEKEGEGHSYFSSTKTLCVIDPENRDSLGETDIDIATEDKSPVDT
- ASSAY PROCEDURE: TR-FRET assay using the LANCE Ultra cAMP kit to determine the activity of hPDE4B1
- Assay type: biochemical
- APPLIED CONDITIONS: test concentration 10 μM (marked in cell), read-out: Inhibition in % (inhibition of PDE4B)
Please give a number only; it is taken to be in %.

MOLECULE	SYSTEM	UNITS	inhibition at 10 µM
C[S+]([O-])c1cn(-c2ncc(-c3ccccc3F)cn2)c2cc(C(=O)N3CC[C@@H](CO)C3)ccc12 (stereo partly shown) [Example 302]	human PDE4B1 (Homo sapiens, UniProt Q07343)	%	103
CN(CC(N)=O)C(=O)c1ccc2c([S+](C)[O-])cn(-c3ncc(-c4cc(C5CC5)ccc4F)cn3)c2c1 (single isomer, unassigned) [Example 335]	human PDE4B1 (Homo sapiens, UniProt Q07343)	%	100
Cc1ccc(F)c(-c2cnc(-n3cc(C(C)O)c4ccc(C(=O)N5CCOCC5)cc43)nc2)c1 (stereo not shown) [Example 320]	human PDE4B1 (Homo sapiens, UniProt Q07343)	%	109

IN: Report inhibition at 10 µM for CC(O)c1ccc(F)c(-c2cnc(-n3cc(S(C)(=O)=O)c4ccc(C(=O)N5CCOCC5)cc43)nc2)c1 (single isomer, unassigned) [Example 344]
OUT: 96

* * *

melting point by entry:

COMPOUND	ENDPOINT RESULT
C[S+]([O-])c1cn(-c2ncc(-c3cc(C(N)=O)cs3)cn2)c2cc(C(=O)N3CCOCC3)ccc12 (stereo not shown)	302 to 305 °C

Okay, next one:
IN: Report melting point for CS(=O)(=O)c1cn(-c2ncc(-c3ccccc3C#N)cn2)c2cc(C(=O)N3CCNCC3)ccc12
OUT: 193 to 197 °C

* * *

- SYSTEM: human PDE4B1 (Homo sapiens, UniProt Q07343)
- Construct: host or cells: Sf9 cells
- ASSAY PROCEDURE: cAMP HTRF assay to determine the activity of hPDE4B1
- Format: biochemical
- APPLIED CONDITIONS: inhibition of PDE4B at a test concentration of 1 μM
TEST READOUT: inhibition at 1 µM (%)
Please give a number only; it is taken to be in %.

MOLECULE	inhibition at 1 µM / %
C[S+]([O-])c1cn(-c2ncc(-c3ccccc3F)cn2)c2cc(C(=O)N3CCC[C@H]3CO)ccc12 (stereo partly shown) [Example 79]	103
CN(C)[C@@H]1CCN(C(=O)c2ccc3c([S+](C)[O-])cn(-c4ncc(-c5ccccc5F)cn4)c3c2)C1 (stereo partly shown) [Example 374]	47

Okay, next one:
IN: Report inhibition at 1 µM for C[S+]([O-])c1cn(-c2ncc(-c3cc(C#N)ccn3)cn2)c2cc(C(=O)N3CCOCC3)ccc12 (stereo not shown) [Example 181]
OUT: 96

* * *

- SYSTEM: human PDE4B1 (Homo sapiens)
- Construct: host or cells: Sf9 cells
- ASSAY PROCEDURE: TR-FRET assay using the LANCE Ultra cAMP kit to determine the activity of hPDE4B1
- Type: biochemical
- APPLIED CONDITIONS: test concentration 10 μM (marked in cell), read-out: Inhibition in % (inhibition of PDE4B)
TEST READOUT: inhibition at 10 µM

COMPOUND	inhibition at 10 µM
Cc1ccc(F)c(-c2cnc(-n3cc(S(C)(=O)=O)c4ccc(C(=O)N(C)CC(N)=O)cc43)nc2)c1	89%
Cc1ccnc(-c2cnc(-n3cc([S+](C)[O-])c4ccc(C(=O)N5CC[C@@H](N)C5)cc43)nc2)c1 (stereo partly shown)	64%
CCOc1ccc(F)c(-c2cnc(-n3cc(C(C)O)c4ccc(C(=O)N5CCOCC5)cc43)nc2)c1 (stereo not shown)	99%

Okay, next one:
IN: Report inhibition at 10 µM for C[S+]([O-])c1cn(-c2ncc(-c3cc(C4(O)CC4)ccc3F)cn2)c2cc(C(=O)N3CCOCC3)ccc12 (stereo not shown)
OUT: 98%

* * *

inhibition at 1 µM by entry:
- SYSTEM: human PDE4B1 (Homo sapiens)
- Construct: host or cells: Sf9 cells
- ASSAY PROCEDURE: cAMP HTRF assay to determine the activity of hPDE4B1
- Type: biochemical
- APPLIED CONDITIONS: inhibition of PDE4B at a test concentration of 1 μM
Please give a number only; it is taken to be in %.

Would you please look over these solved cases?
COMPOUND	UNITS	inhibition at 1 µM
C[S+]([O-])c1cn(-c2ncc(-c3cccc(S(C)(=O)=O)c3)cn2)c2cc(C(=O)N3CCOCC3)ccc12 (stereo not shown)	%	90
CCN(CC)C(=O)c1ccc2c([S+](C)[O-])cn(-c3ncc(-c4ccccc4F)cn3)c2c1 (stereo not shown)	%	107
C[S+]([O-])c1cn(-c2ncc(-c3ccccc3F)cn2)c2cc(C(=O)N3CC[C@@H](N)C3)ccc12 (stereo partly shown)	%	108
C[S+]([O-])c1cn(-c2ncc(-c3nccs3)cn2)c2cc(C(=O)N3CCOCC3)ccc12 (stereo not shown)	%	85
Cc1ccnc(-c2cnc(-n3cc([S+](C)[O-])c4ccc(C(=O)N5CCOCC5)cc43)nc2)c1 (racemic)	%	110

IN: Report inhibition at 1 µM for C[S+]([O-])c1cn(-c2ncc(-c3ncccc3F)cn2)c2cc(C(=O)N3CCOCC3)ccc12 (stereo not shown)
OUT: 81

IN: Report inhibition at 1 µM for COC(=O)c1cccc(-c2cnc(-n3cc([S+](C)[O-])c4ccc(C(=O)N5CCOCC5)cc43)nc2)c1 (stereo not shown)
OUT: 112

* * *

- SYSTEM: human PDE4B1 (Homo sapiens, UniProt Q07343)
- Construct: host or cells: Sf9 cells
- ASSAY PROCEDURE: TR-FRET assay using the LANCE Ultra cAMP kit to determine the activity of hPDE4B1
- Format: biochemical
- APPLIED CONDITIONS: test concentration 1 μM, read-out: Inhibition in % (inhibition of PDE4B)
- Excerpt: TR-FRET Assay Using the LANCE® Ultra cAMP Kit to Determine the Activity of hPDE4B1 The effects of the compounds on the activity of the human PDE4B1 was quantified by measuring the production of 5′AMP from cAMP using a human recombinant enzyme expressed in Sf9 cells and the LANCE® Ultra cAMP kit, a TR-FRET detection method from PerkinElmer. The human PDE4B1 enzyme was purchased from SignalChem Lifesciences (Catalog# P92-31BG, Lot# H296-2). […]
TEST READOUT: inhibition at 1 µM

Would you please look over these solved cases?
COMPOUND	SYSTEM	inhibition at 1 µM
CCN(C)C(=O)c1ccc2c([S+](C)[O-])cn(-c3ncc(-c4cc(C)ccn4)cn3)c2c1 (stereo not shown)	human PDE4B1 (Homo sapiens, UniProt Q07343)	97%
CCN(C)C(=O)c1ccc2c([S+](C)[O-])cn(-c3ncc(-c4cc(C)ccc4F)cn3)c2c1 (stereo not shown)	human PDE4B1 (Homo sapiens, UniProt Q07343)	98%
CC(C)c1ccnc(-c2cnc(-n3cc(S(C)(=O)=O)c4ccc(C(=O)N5CCOCC5)cc43)nc2)c1	human PDE4B1 (Homo sapiens, UniProt Q07343)	76%
CN(CCN)C(=O)c1ccc2c([S+](C)[O-])cn(-c3ncc(-c4ccccc4F)cn3)c2c1 (stereo not shown)	human PDE4B1 (Homo sapiens, UniProt Q07343)	94%
COc1ccc(F)c(-c2cnc(-n3cc([S+](C)[O-])c4ccc(C(=O)N(C)CC(N)=O)cc43)nc2)c1 (stereo not shown)	human PDE4B1 (Homo sapiens, UniProt Q07343)	97%

IN: Report inhibition at 1 µM for O=C(c1ccc2c(C3CC3)cn(-c3ncc(-c4ccccc4F)cn3)c2c1)N1CCOCC1
OUT: 71%

IN: Report inhibition at 1 µM for Cc1ccc(F)c(-c2cnc(-n3cc([S+](C)[O-])c4ccc(C(=O)N(C)C)cc43)nc2)c1 (stereo not shown)
OUT: 94%

* * *

- SYSTEM: human PDE4B1 (Homo sapiens, UniProt Q07343)
- Construct: host or cells: Sf9 cells
- ASSAY PROCEDURE: cAMP HTRF assay to determine the activity of hPDE4B1
- Type: biochemical
- APPLIED CONDITIONS: inhibition of PDE4B at a test concentration of 1 μM
Short version: inhibition at 1 µM at least 60% is Fulfilled, less is Not fulfilled.

Examples from the recorded data:
MOLECULE	SYSTEM	CLASS LABEL
C[S+]([O-])c1cn(-c2ncc(-c3ccnc(F)c3)cn2)c2cc(C(=O)N3CCOCC3)ccc12 (stereo not shown) [Example 187]	human PDE4B1 (Homo sapiens, UniProt Q07343)	Not fulfilled
CN1CCN(C(=O)c2ccc3c([S+](C)[O-])cn(-c4ncc(-c5ccccc5F)cn4)c3c2)CC1 (stereo not shown) [Example 365]	human PDE4B1 (Homo sapiens, UniProt Q07343)	Not fulfilled

IN: Determine whether measured inhibition at 1 µM meets or exceeds 60% for CS(=O)(=O)c1cn(-c2ncc(-c3ccccc3C#N)cn2)c2cc(C(=O)N3CCOCC3)ccc12 [Example 8]
OUT: Not fulfilled

IN: Determine whether measured inhibition at 1 µM meets or exceeds 60% for CC(O)CN(C)C(=O)c1ccc2c([S+](C)[O-])cn(-c3ncc(-c4ccccc4F)cn3)c2c1 (stereo not shown) [Example 168]
OUT: Not fulfilled

IN: Determine whether measured inhibition at 1 µM meets or exceeds 60% for C[S+]([O-])c1cn(-c2ncc(-c3ccccc3F)cn2)c2cc(C(=O)N3CCC[C@@H]3CO)ccc12 (stereo partly shown) [Example 78]
OUT: Fulfilled

IN: Determine whether measured inhibition at 1 µM meets or exceeds 60% for CNC(=O)c1ccc2c([S+](C)[O-])cn(-c3ncc(-c4ccccc4F)cn3)c2c1 (stereo not shown) [Example 61]
OUT: Fulfilled

IN: Determine whether measured inhibition at 1 µM meets or exceeds 60% for C[S+]([O-])c1cn(-c2ncc(-c3ccccc3)cn2)c2cc(C(=O)N3C[C@H]4C[C@@H]3CN4)ccc12 (stereo partly shown) [Example 232]
OUT: Not fulfilled

Sourced from patent US9315490B2
